B1: Caulobacter ParB omega fusion; a variant is named by its letters at X, in order, B8GW30 (parent)
chain: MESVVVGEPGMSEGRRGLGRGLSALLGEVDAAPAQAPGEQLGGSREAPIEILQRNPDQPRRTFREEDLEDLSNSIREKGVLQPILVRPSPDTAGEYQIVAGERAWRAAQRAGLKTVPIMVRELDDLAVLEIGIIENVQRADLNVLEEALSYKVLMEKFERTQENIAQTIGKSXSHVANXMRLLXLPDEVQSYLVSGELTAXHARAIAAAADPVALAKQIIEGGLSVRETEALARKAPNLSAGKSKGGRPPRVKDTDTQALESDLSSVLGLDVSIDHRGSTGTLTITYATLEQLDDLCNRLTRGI

# Variants of: B1
# PROTOCOL_NOTES: one-hybrid fitness for binding NBS DNA (the Noc-binding site; scaled: cognate 1, non-cognate 0); higher = stronger binding
# TEST_PARAMETERS: with NBS DNA site
The full ranking holds about 81,000 sequences; the median of “one-hybrid fitness for binding NBS DNA” is about -0.1, and the highest 2% start at about 0.36. For the sample, the highest values were picked, then their nearest neighbours and some sequences at random.
OUTCOME_MEASURE: one-hybrid fitness for binding NBS DNA
# respond with the number and nothing more

// solved cases for one-hybrid fitness for binding NBS DNA follow
query: Looking for the measured one-hybrid fitness for binding NBS DNA of RTYR , can you help?
result: 0.522

query: Looking for the measured one-hybrid fitness for binding NBS DNA of RYNT , can you help?
result: 0.514

query: Looking for the measured one-hybrid fitness for binding NBS DNA of RTGR , can you help?
result: 0.622

With those in mind, consider the next variant.
query: Looking for the measured one-hybrid fitness for binding NBS DNA of RTGH , can you help?
result: 0.271
